Form field: fluorescence slope (one value per entry).
- TEST SYSTEM: Voltage-gated potassium channel subunit beta-2 (Rattus norvegicus)
- ASSAY COMMENT: inhibitors of rat Kvbeta2 reductase activity – biochemical, NADPH fluorescence, primary screen (AID 622);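 further: slope of raw intensity against log time taken from 70 to 1610 s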
- TEST PARAMETERS: recombinant KvBeta, 4-cyanobenzaldehyde reduction, at 10 µM, hits give high values
PROPERTY MEASURED: fluorescence slope

COMPOUND	VALUE
CC1=C(C(=O)NCc2ccco2)C2(CCC(C)CC2)OC1=O (stereo not drawn)	-0.513
O=C(CNCC1CCCO1)Nc1ccccc1-n1cccc1 (stereo not drawn)	-0.291
O=C(NC12CC3CC(CC(C3)C1)C2)c1cncc(O)c1	-0.608
CCOC(=O)N1CCC(NC(=O)c2ccc3c(c2)sc2nc(-c4cccc(OC)c4)cn23)CC1	-0.485
O=C(CCNS(=O)(=O)c1cccc2nsnc12)Nc1ccc2c(c1)OCCO2	-0.421
CC1CCN(C(=O)CSc2nnc(Cc3cc(=O)[nH]c(=O)[nH]3)n2-c2ccc(Cl)cc2)CC1	-0.602
CC1(C)CC(CCNC(=O)c2ccco2)CC(C)(C)N1	-0.473
Cc1cc(-n2c(C)cc(C(=O)CSc3nc4ccccc4c(=O)n3Cc3ccco3)c2C)no1	-0.441
CCn1cc(S(=O)(=O)CC(=O)Nc2ccc(OC)cc2)c2ccccc21	-0.528
Cn1nnnc1SCC(=O)NC1CCCCC1	-0.432
CCOC(=O)c1nnn(CC(=O)Nc2cccc(F)c2)c1C(=O)OCC	-0.6
Cc1cc(C)nc(/N=C2\NC(=O)CC(C(=O)O)N2c2ccc(Cl)cc2)n1 (stereo not drawn)	-0.552
O=C(Nc1ccc(Cl)cc1C(=O)O)c1ccc2c(c1)C(=O)N(Cc1ccco1)C2=O	-0.493
O=C(C1CCCN(S(=O)(=O)c2cccc3nonc23)C1)N1CCC(Cc2ccccc2)CC1 (stereo not drawn)	-0.304
Nn1c(SCC(=O)Nc2ccc(F)cc2)nnc1-c1cccnc1	-0.397
CC(NS(=O)(=O)c1ccccc1)C(c1cccs1)N1CCN(C)CC1 (stereo not drawn)	-0.321
O=C(CSc1nnc(-c2ccccc2F)o1)OCc1ccccc1	-0.428
COc1ccc(S(=O)(=O)N2CN(Cc3ccco3)c3nc4ccccc4nc32)cc1	-0.605
Cc1cccc2cc(COC(=O)C(C)(C)C)c(=O)[nH]c12	-0.471
CCCCc1n[nH]c2c1C(=O)CC(C)(C)C2	-0.449
Clc1ccc(OCc2nc(-c3ccccn3)no2)c(Br)c1	-0.595
COc1ccc(Br)cc1C1N2CC3(C)CN1CC(C)(C2)C3=O (stereo not drawn)	-0.389
COc1cccc(CN2CCN(C(=O)CC(C)C)CC2)c1	-0.241

The reported measurements were obtained from PubChem BioAssay.
